FYI, the data here is from ChEMBL document CHEMBL1159165.

# PROCEDURE_DETAILS: Compound was evaluated for inhibitory activity against elastase at dose of 100 uM
Exercise: for every item that follows, state its recorded inhibition.
Field: numeric (%). Do not append units.

Please give the measured inhibition for this molecule: CC1=N[C@@]2(C[C@@H]2c2ccccc2)C(=O)O1
82

Recorded inhibition for O=C1OC(c2ccccc2)=N[C@@]12C[C@@H]2c1ccccc1 , please?
42

What does the record list as inhibition for COc1ccc([C@H]2C[C@@]23N=C(c2ccccc2)OC3=O)cc1 ?
35

Could you tell me which inhibition is on file for CS(=O)(=O)ON1C(=O)/C(=C/c2ccccc2)N=C1c1ccccc1 ?
33

###

# System: Human betaherpesvirus 5
# PROCEDURE_DETAILS: Compound was evaluated for inhibitory activity against human cytomegalovirus (HCMV) protease.
# Assay type: functional
pIC50: −log10 of the molar value.
Use 6 as the dividing line for pIC50, with the line itself on the true side and lower values as false.

Is pIC50 for O=C1OC(c2ccccc2)=N[C@@]12C[C@@H]2c1ccccc1 at or above 6?
false

Entry COc1ccc([C@H]2C[C@@]23N=C(c2ccccc2)OC3=O)cc1 : is its pIC50 no less than 6?
true

Entry COc1ccc(S(=O)(=O)ON2C(=O)/C(=C/c3ccccc3)N=C2c2ccccc2)cc1 : is its pIC50 no less than 6?
false

Quick check: does CC(=O)n1cc([C@H]2C[C@@]23N=C(c2ccccc2)OC3=O)c2ccccc21 have pIC50 greater than or equal to 6?
true

Could you please find out whether CS(=O)(=O)ON1C(=O)/C(=C/c2ccccc2)N=C1c1ccccc1 has pIC50 that meets 6 or exceeds it?
true
